tested on: rodent lifetime carcinogenesis bioassay, tumor incidence TD50; assay: carcinogenic potency in animals, long-term in vivo studies, CPDB compilation (AID 1745844); conditions: mouse; strain B6C3F1; females; in feed; site: liver; lesion: hepatocellular adenoma + hepatocellular carcinoma; dosed 101 weeks; study length 104 weeks
Experimental readout: TD50

Asked: Endpoint output: TD50 of CCC1(c2ccccc2)C(=O)NCNC1=O . Value?
Given back: 28.9 mg/kg/day

---

tested on: rodent lifetime carcinogenesis bioassay, tumor incidence TD50; assay: carcinogenic potency in animals, long-term in vivo studies, CPDB compilation (AID 1745844); details: mouse; strain B6C3F1; females; in feed; site: liver; lesion: hepatocellular adenoma + hepatoblastoma + hepatocellular carcinoma; dosed 104 weeks; study length 106 weeks
Experimental readout: TD50 (mg/kg/day)
# value in mg/kg/day; strip the unit string

Asked: Provide value of TD50 for this record tested with rodent lifetime carcinogenesis bioassay, tumor incidence TD50: OCC(CO)(CBr)CBr
Given back: 267
